TARGET UNDER TEST: human DGKζ (Homo sapiens)
Construct: TVMV protease cleavage site (C); Hexa-His (C); made in house; host or cells: Sf9 insect cells (baculovirus, Bac-to-Bac)
Sequence (Q13574 with tags, fused parts or gaps isoform Q13574-4): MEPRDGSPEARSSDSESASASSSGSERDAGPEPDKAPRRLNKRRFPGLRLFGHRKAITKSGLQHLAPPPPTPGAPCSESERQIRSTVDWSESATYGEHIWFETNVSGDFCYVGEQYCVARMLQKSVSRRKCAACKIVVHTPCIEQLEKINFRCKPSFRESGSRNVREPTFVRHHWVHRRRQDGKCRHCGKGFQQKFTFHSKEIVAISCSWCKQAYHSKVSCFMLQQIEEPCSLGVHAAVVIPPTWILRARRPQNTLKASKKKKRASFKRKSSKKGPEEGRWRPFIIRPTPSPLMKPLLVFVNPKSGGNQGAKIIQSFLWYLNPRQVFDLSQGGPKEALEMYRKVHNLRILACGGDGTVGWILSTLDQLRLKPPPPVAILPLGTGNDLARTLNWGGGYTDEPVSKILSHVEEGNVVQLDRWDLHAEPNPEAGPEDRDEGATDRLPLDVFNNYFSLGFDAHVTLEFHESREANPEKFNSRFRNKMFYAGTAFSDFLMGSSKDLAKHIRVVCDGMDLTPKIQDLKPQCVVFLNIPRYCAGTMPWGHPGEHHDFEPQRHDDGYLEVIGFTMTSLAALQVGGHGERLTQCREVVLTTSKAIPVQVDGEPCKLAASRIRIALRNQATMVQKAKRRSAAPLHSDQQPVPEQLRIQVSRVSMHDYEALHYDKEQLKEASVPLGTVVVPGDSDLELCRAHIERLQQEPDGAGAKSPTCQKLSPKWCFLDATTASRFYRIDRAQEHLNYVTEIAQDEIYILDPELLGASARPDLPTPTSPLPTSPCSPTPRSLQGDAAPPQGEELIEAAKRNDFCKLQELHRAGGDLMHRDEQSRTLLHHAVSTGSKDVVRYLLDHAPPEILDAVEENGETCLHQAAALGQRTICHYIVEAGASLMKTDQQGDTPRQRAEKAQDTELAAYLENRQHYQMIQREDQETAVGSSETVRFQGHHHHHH
ASSAY EXPLANATION: DGKζ LIPGLO assay (extruded liposome substrate), in vitro DGK inhibition
Format: biochemical
MEASUREMENT PARAMETERS: liposome (LIPGLO) assay; read-out: DGKz LIPGLO IC50
ASSAY ENDPOINT: IC50 (nM)

C[C@@H]1CN(c2cc(=O)n(C)c3ccc(C#N)nc23)[C@@H](C)CN1C(c1ccccn1)c1ccc(F)cc1F (single isomer, unassigned) [Example 683] | 23000
Cc1ccc(C(c2cccc(F)c2)N2C[C@H](C)N(c3cc(=O)n(C)c4ccc(C#N)nc34)C[C@H]2C)nc1 (single isomer, unassigned) [Example 215] | 530
CC[C@@H]1CN(c2cc(=O)n(C)c3ccc(C#N)nc23)[C@@H](C)CN1Cc1c(F)cc(F)cc1F | 690
CC[C@H]1CN(C(c2ccc(F)cc2)c2ccc(C(F)(F)F)cn2)[C@H](C)CN1c1cc(=O)n(C)c2ccc(C#N)nc12 (single isomer, unassigned) [Example 1131] | 180
C[C@@H]1CN(c2cc(=O)n(C)c3ccc(C#N)nc23)[C@@H](C)CN1C(Cc1nc(C2CC2)no1)c1ccc(F)cc1 (single isomer, unassigned) [Example 1327] | 290

A = C[C@@H]1CN(c2cc(=O)n(C)c3ccc(C#N)nc23)[C@@H](C)CN1C(c1ccccc1)c1ccc(OC(F)(F)F)cc1 (single isomer, unassigned) [Example 222]
B = Cc1ccc(C(c2cccc(F)c2)N2C[C@H](C)N(c3cc(=O)n(C)c4ccc(C#N)nc34)C[C@H]2CO)nc1 (some centres unmarked) [Example 1154]
Please indicate which has the smaller reported IC50: A , or B . Output the label that corresponds to your choice.
A
(A: 710 nM, B: 50000 nM)

1 = C[C@@H]1CN(c2cc(=O)n(C)c3ccc(C#N)nc23)[C@@H](C)CN1C(c1ccc(F)cc1)c1cccc(C(F)(F)F)n1 (some centres unmarked) [Example 679]
2 = Cc1cccc(C(c2ccc(F)cc2)N2C[C@H](C)N(c3cc(=O)n(C)c4ccc(C#N)nc34)C[C@H]2C)c1 (single isomer, unassigned) [Example 223]
3 = [2H]C(C)(c1ccc(F)cc1)N1C[C@H](C)N(c2c(F)c(=O)n(C)c3ccc(C#N)nc23)C[C@H]1C (single isomer, unassigned) [Example 425]
4 = C[C@@H]1CN(c2c(C#N)c(=O)n(C)c3ccc(C#N)nc23)CCN1C(c1ccc(Cl)cc1)c1ccncn1 (single isomer, unassigned) [Example 320]
Could you please order the items by IC50, going from the lowest number to the highest? Quick reminder: the answer is the labels in the order asked.
2, 1, 3, 4
(2: 34 nM, 1: 720 nM, 3: 1500 nM, 4: 28000 nM)

A = C[C@@H]1CN(c2c(F)c(=O)n(C)c3ccc(C#N)nc23)CCN1C(c1ccc(Cl)cc1)c1ccc(Cl)cc1
B = CC(c1ccc(OC(F)(F)F)cc1)N1C[C@H](C)N(c2cc(=O)n(C)c3ccc(C#N)nc23)C[C@H]1CN1CCN(C)CC1 (some centres unmarked) [Example 1417]
C = COC(=O)C1CN(c2cc(=O)n(C)c3ccc(C#N)nc23)CCN1C(c1ccc(F)cc1)c1ccc(F)cc1OC (single isomer, unassigned) [Example 69]
D = CC[C@H]1CN(C(C)c2ccc(F)cc2F)[C@H](C)CN1c1cc(=O)n(C)c2ccc(C#N)nc12 (single isomer, unassigned) [Example 1137]
Could you please order the items by IC50, going from the lowest number to the highest? Quick reminder: the answer is the labels in the order asked.
D, A, C, B

a = C[C@@H]1CN(c2cc(=O)n(C)c3ccc(C#N)nc23)[C@@H](C)CN1C(c1ccc(F)cc1)c1nccn1C (some centres unmarked) [Example 713]
b = C[C@@H]1CN(c2cc(=O)n(C)c3ccc(C#N)nc23)[C@@H](C)CN1C(c1ccc(Cl)cc1)c1ccc(Cl)cn1 (single isomer, unassigned) [Example 202]
c = C[C@@H]1CN(c2cc(=O)n(C)c3ccc(C#N)nc23)[C@@H](C)CN1Cc1cccc2c1N(C)C(=O)CO2
d = COC[C@@H]1CN(c2cc(=O)n(C)c3ccc(C#N)nc23)[C@@H](C)CN1C(c1ccc(F)cc1)c1ccc(C(F)(F)F)cn1 (some centres unmarked) [Example 1401]
e = Cn1c(=O)cc(N2CCN(C(c3ccc(F)cc3)c3ccc(F)cc3)C(COC(F)F)C2)c2nc(C#N)ccc21 (single isomer, unassigned) [Example 1186]
Kindly order the items shown according to IC50, from the highest value down. Quick reminder: the answer is the labels in the order asked.
c, a, e, b, d
(c: 150000 nM, a: 51000 nM, e: 30000 nM, b: 490 nM, d: 49 nM)
